inhibition values by entry
experiment: inhibitors of HIV fusion peptide binding, primary screen, biochemical, uHTS, fluorescence dequenching (AID 1986); details: cell-free peptide binding, 30 min, at 20 µM, stronger effect = higher value
The campaign covered roughly 290,000 compounds. About 890 (0.31%) were called active. The sample as a whole holds a higher share of actives than the screen did.
Field format: number, assumed %, no unit text.

Recorded results for 3 compounds are shown here.
{"COMPOUND": "CN1C(=O)C(=Cc2ccc(N3CCCCCC3)o2)C(=O)N(C)C1=S", "inhibition (%)": 149}
{"COMPOUND": "COCCCNC(=O)Cn1cc(/C=C2\\C(=O)NC(=O)N(c3ccccc3F)C2=O)c2ccccc21", "inhibition (%)": 159}
{"COMPOUND": "COCCNC(=O)Cn1cc(C=C2C(=O)NC(=O)NC2=O)c2ccccc21", "inhibition (%)": 43.1}

For reference, reported inhibition for O=C(Cn1cc(C=C2C(=O)NC(=O)NC2=O)c2ccccc21)NCC1CCCO1 (stereo unspecified) stands at 61.4

For reference, reported inhibition for CC1CCC(N2CCN(C(=O)COc3ccccc3)CC2)CC1 (stereo unspecified) stands at 2.3

For reference, reported inhibition for `O=P(/C(=N/O)N1CCOCC1)(N1CCOCC1)N1CCOCC1` stands at 2.4

For reference, reported inhibition for `CCOC(=O)c1c(C)n(C(C)C)c2ccc(OC)cc12` stands at -1.3

For reference, reported inhibition for `O=C(NCc1ccccn1)c1ccccc1Cl` stands at -1.3

For reference, reported inhibition for `O=C(O)Cn1cc(C=C2C(=O)NC(=O)NC2=O)c2ccccc21` stands at 4.8

For reference, reported inhibition for COc1cccc(C(=O)C2CCCN(C3CCOCC3)C2)c1 (stereo unspecified) stands at 0.4

For reference, reported inhibition for CC1CC2(O)c3no[n+]([O-])c3CCC2N1O (stereo unspecified) stands at 1.4

====

inhibition values by entry
experiment: inhibitors of HIV fusion peptide binding, primary screen, biochemical, uHTS, fluorescence dequenching (AID 1986); conditions: cell-free peptide binding, 30 min, measured here: repeat confirmation average inhibition, at 18.6 µM, stronger effect = higher value
About 890 (0.31%) of roughly 290,000 compounds were called active. What follows is part of a selection rich in actives, with near analogues and random picks from the rest.
Field format: number, assumed %, no unit text.

{"SMILES REPRESENTATION": "Cc1ccc(/C=C2/Sc3ccc(C(=O)N4CCC5(CC4)OCCO5)cc3NC2=O)cc1", "READOUT UNIT": "%", "VAL": 37.1}
{"SMILES REPRESENTATION": "Cc1cc(/C=C2\\C(=O)NC(=O)N(c3ccc(Cl)cc3)C2=O)c(C)n1-c1sc2c(c1C#N)CCCC2", "READOUT UNIT": "%", "VAL": 9}
{"SMILES REPRESENTATION": "COC(=O)Cn1cc(C=C2C(=O)N(C)C(=O)N(C)C2=O)c2ccccc21", "READOUT UNIT": "%", "VAL": 98.7}
{"SMILES REPRESENTATION": "CN1C(=O)C(=Cc2ccc(N3CCCCC3)o2)C(=O)N(C)C1=S", "READOUT UNIT": "%", "VAL": 52.4}

Alright, here's another molecule for you.
For reference, reported inhibition for `CCOC(=O)Cn1cc(C=C2C(=O)N(C)C(=O)N(C)C2=O)c2ccccc21` stands at 149

====

experiment: inhibitors of HIV fusion peptide binding, primary screen, biochemical, uHTS, fluorescence dequenching (AID 1986); conditions: cell-free peptide binding, 30 min, at 20 µM
Out of some 290,000 compounds screened, about 890 (0.31%) were called active. No stated cut-off is given here; in the data, active means inhibition mostly above about 52% (no sharp cut-off); inactive means mostly below about 76%. Shown is part of a subset that was picked to be rich in actives.
Return exactly one item of true (1) = active, false (0) = inactive

Below are worked cases with known answers.
{"MOLECULE": "CN1CCN(c2ccc(Cl)cc2N)CC1", "LABEL": "false (0)"}
{"MOLECULE": "Cc1cc(/C=C2/C(=O)NC(=O)N(Cc3ccco3)C2=O)c(C)n1-c1ccccc1", "LABEL": "false (0)"}
{"MOLECULE": "COc1cc(C)c(CN2CC=C(c3ccc(F)cc3)CC2)cc1C", "LABEL": "false (0)"}
{"MOLECULE": "CCCOP(=O)(OCCC)C(NC(=O)c1cc(OC)c(OC)c(OC)c1)c1ccccc1 (stereo not given)", "LABEL": "false (0)"}
{"MOLECULE": "COc1ccc(/C=C2/C(=O)NC(=O)N(Cc3ccco3)C2=O)cc1", "LABEL": "true (1)"}
{"MOLECULE": "Fc1ccc(Cn2nnnc2C(c2ccc(F)cc2)N2CC=C(c3ccc(F)cc3)CC2)cc1 (stereo not given)", "LABEL": "false (0)"}
{"MOLECULE": "Cc1cc(C)cc(N2C(=O)NC(=O)/C(=C\\C=C\\c3ccco3)C2=O)c1", "LABEL": "false (0)"}
{"MOLECULE": "COc1ccc(CN2C(=O)NC(=O)/C(=C/c3ccc([N+](=O)[O-])o3)C2=O)cc1", "LABEL": "true (1)"}
{"MOLECULE": "CCN(CC)c1ccc(/C=C2/C(=O)NC(=O)N(Cc3ccco3)C2=O)cc1", "LABEL": "true (1)"}

Lab log entry: CC(Cc1ccccc1)[n+]1cc(/N=C(\N)[O-])on1 (stereo not given) — outcome as called in the assay? false (0)

====

assay: inhibitors of HIV fusion peptide binding, primary screen, biochemical, uHTS, fluorescence dequenching (AID 1986); details: cell-free peptide binding, 30 min, at 20 µM, stronger effect = higher value
In all, about 290,000 compounds went through this assay and about 890 (0.31%) were called active. This is one part of a sample in which actives are shown more often than they occur.
MEASURE NAME: inhibition

{"COMPOUND": "O=[N+]([O-])c1ccc2c(c1)C(c1ccccc1)=NCCN2", "MEASURE NAME": "inhibition", "VAL": "0.2% (inactive)"}
{"COMPOUND": "CC(=NCC1CCCO1)c1c(O)n(C)c(=O)n(C)c1=O (stereo unspecified)", "MEASURE NAME": "inhibition", "VAL": "-2.1% (inactive)"}
{"COMPOUND": "Cc1ccc(-n2c(O)c(/C=C/C=Nc3ccccc3)c(=O)[nH]c2=O)cc1", "MEASURE NAME": "inhibition", "VAL": "74.3% (active)"}

For reference, reported inhibition for `O=c1[nH]c(=O)n(-c2ccccc2)c(O)c1/C=C/C=Nc1ccccc1` stands at 147% (inactive)

For reference, reported inhibition for `CCOC(=O)c1c(/N=C/C2C(=O)NC(=S)NC2=O)sc(C)c1C` stands at 30.3% (inactive)

For reference, reported inhibition for `Cc1cccc(-n2c(O)c(C=Nc3ccc(Br)cn3)c(=O)[nH]c2=O)c1` stands at 144% (inactive)

====

assay: inhibitors of HIV fusion peptide binding, primary screen, biochemical, uHTS, fluorescence dequenching (AID 1986); settings: cell-free peptide binding, 30 min, at 20 µM, stronger effect = higher value
Among all 290,000 compounds or so, about 890 (0.31%) were called active. This is one part of a sample in which actives are shown more often than they occur.
inhibition values by entry
Field format: number, assumed %, no unit text.

Recorded results for 3 compounds are shown here.
{"COMPOUND": "Cc1cc(/C=C2\\C(=O)NC(=O)N(Cc3ccccc3)C2=O)c(C)n1-c1ccc(Cl)c(C(=O)O)c1", "VAL": 52.5}
{"COMPOUND": "CN(C)C(=O)Oc1ccc(-c2cn3cc(Cl)ccc3n2)cc1", "VAL": -0.5}
{"COMPOUND": "COc1ccc(OC(=O)N(C)C)c(CN(C)C)c1", "VAL": 0.5}

Alright, here's another compound for you.
For reference, reported inhibition for O=C(O)C1C2c3ccccc3C(c3ccccc32)C1C(=O)Nc1ccccc1 (stereo unspecified) stands at 4.1

====

inhibition values by entry
assay: inhibitors of HIV fusion peptide binding, primary screen, biochemical, uHTS, fluorescence dequenching (AID 1986); details: cell-free peptide binding, 30 min, at 20 µM, stronger effect = higher value
The whole screen tested about 290,000 compounds, of which about 890 (0.31%) were called active. The sample holds actives, similar compounds and a random draw of the others, so the mix is not that of the screen.
Field format: number, assumed %, no unit text.

Recorded results for 5 compounds are shown here.
{"COMPOUND": "O=C1NC(=O)N(c2ccccc2)C(=O)/C1=C\\c1ccc([N+](=O)[O-])s1", "READOUT UNIT": "%", "inhibition": 61.1}
{"COMPOUND": "O=C1NC(=O)N(Cc2ccc(F)cc2)C(=O)/C1=C/c1cccs1", "READOUT UNIT": "%", "inhibition": -3.9}
{"COMPOUND": "COc1ccc(CN2C(=O)NC(=O)/C(=C/c3ccc([N+](=O)[O-])s3)C2=O)cc1", "READOUT UNIT": "%", "inhibition": 55.1}
{"COMPOUND": "Cc1cc2c(C(F)(F)F)cc(=O)oc2c2c1NCCC2", "READOUT UNIT": "%", "inhibition": 51.9}
{"COMPOUND": "COCCOC(=O)C1=C(C)OC(N)=C(C(=O)OC)C12C(=O)Nc1ccccc12 (stereo not given)", "READOUT UNIT": "%", "inhibition": -2}

For reference, reported inhibition for `CCOc1ccc(N2C(=O)NC(=O)/C(=C\c3ccc(N4CCCCC4)o3)C2=O)cc1` stands at 152

For reference, reported inhibition for `CCOP(=O)(OCC)/C(C#N)=C/c1ccoc1` stands at 13.5
